The measured values listed here are drawn from the supplement of paper PMC11865577.

Measured pull-down binding Z-score accompanies every entry in the list below.
- Test system: TO-N3 (biotin conjugate)
- Test Description: pull-down binding Z-score (relative to library population); higher = stronger binding
- Measurement Context: RNA library: Library-2

Check out these entries, answers already filled in.
{"columns": ["Sequence Chain", "Result"],
 "data": [
  ["GCGCUGCCAGAAACUGGCUAGCGC [bulge-U]", -0.0999],
  ["AGCAUGCACUUAAUGUGGGUGUAUGU [hsa-mir-668]", 0.184],
  ["AGAAGCUAAAGUGUAGAUCAAACGCAUAAUGGCUGA [hsa-mir-4500]", 0.65],
  ["CAGUGCACCUUCAUGAACCG [hsa-mir-938]", 0.758],
  ["AUCAUGUAUAAUUAAAAAUGAU [hsa-mir-509-2_509-3_509-1]", -0.599]
]}

Entry `GAUCUCUUGUAGAUC` has what pull-down binding Z-score?
0.342

Entry UUGUAAUAGUGUAGAAUGUUGGUUAAC [hsa-mir-591] has what pull-down binding Z-score?
0.358

###

Measured pull-down binding Z-score accompanies every entry in the list below.
- Test system: TO-N3 (biotin conjugate)
- Test Description: pull-down binding Z-score (relative to library population); higher = stronger binding
- Measurement Context: RNA library: Library-2
Provide a numeric answer; units are not to be included.

Check out these entries, answers already filled in.
{"columns": ["Sequence Chain", "Assay System", "pull-down binding Z-score"],
 "data": [
  ["GAUGCUGUAUAUCUGAAAGGUAC [hsa-mir-101-2]", "TO-N3 (biotin conjugate)", -0.126],
  ["CCCUGGGGAGCUGCUGCAGGCAGCAGGUGGGCGGGACGCCAGCAGGCUGUCUAGCUGUUCCCAUGAUGG [hsa-mir-6843]", "TO-N3 (biotin conjugate)", 1.81],
  ["UCGCUUGCAAGUUGGAUUCAGAAUGAGUUUAACAAGGCAUGCGA [IAV_invivo_PA_3_Motif_18+IAV_invivo_PA_3_Motif_18]", "TO-N3 (biotin conjugate)", -0.603],
  ["CAGGCCAUCACAAAUGCCACAGCUUGAGUAAACUGUGCAGCCUG [3-way model-2_DENV2]", "TO-N3 (biotin conjugate)", -0.464],
  ["GGCUGGGCAGGCGGAAAGAGGUCUGAACUGCCUCUGCC [hsa-mir-6791]", "TO-N3 (biotin conjugate)", -0.0487],
  ["CAAGGCUAUUGAUGGUGGUGUCACUCGUGACAUAGCAUCUACAGAUACUUG [SHAPE_invivo_SARS-CoV-2_Motif_176]", "TO-N3 (biotin conjugate)", -0.424]
]}

Write down the reported pull-down binding Z-score of `CCUUGUAGGUUUGUUACAGACACACCUAAAGG` , test system: TO-N3 (biotin conjugate).
-0.262

Write down the reported pull-down binding Z-score of `CACCCGCGAAGAAGCUAUAAGACAUGUACGUGCAUGGAUUGGCUUCGAUGUCGAGGGGUG` , test system: TO-N3 (biotin conjugate).
0.845

###

- Tested on: TO-3-N3-2 (biotin conjugate)
- Test Description: pull-down binding Z-score (relative to library population); higher = stronger binding
- Measurement Context: RNA library: Library-2
Returns one of 1 (yes) or 0 (no); 1 (yes) when pull-down binding Z-score is >= -0.2.

{"columns": ["Sequence Chain", "Discrete Label"],
 "data": [
  ["GAUUGAAGUUGAAUAGUGC [hsa-mir-3161]", "1 (yes)"],
  ["UUGAAUCACACACACAUUUCAA [hsa-mir-4803]", "1 (yes)"]
]}

Is pull-down binding Z-score at least -0.2? Consider GGGUCGGUUGCUCACAAGUCCUGCCUGCCUGCCU [IAV_invivo_NP_5_Motif_15+IAV_invivo_NP_5_Motif_15]
1 (yes)

Is pull-down binding Z-score at least -0.2? Consider `AUGGUCUUUGUUCUUUUUUUUGUAUGAAAAUGCCUUUUUACCUUUUGCUAUGGGUAUUAUUGCUAU`
1 (yes)

Is pull-down binding Z-score at least -0.2? Consider AGCUGUGUUUUCUGACUCAGUCAUAAU [hsa-mir-365b]
0 (no)
